What koff was measured for each of the following?
- subject of test: Recombinant human his-tagged IGF R extracellular domain protein (human) (UniProt P08069)
- test: SPR, Ab captured via anti-huIgG Fc, dissociation at pH 6
Give bare numbers, in s⁻¹.

Record koff per entry; entries follow.
1. VRDN-02009 (antibody, V domains shown) VH: QVQLQESGPGLVKPSETLSLTCTVSGYSITGGYHWNWIRQPPGKGLEWIGYISYDGTNNYKPSLKDRVTISRDTSKNQFSLKLSSVTAADTAVYYCARYGRVFFDYWGQGTLVTVSS VL: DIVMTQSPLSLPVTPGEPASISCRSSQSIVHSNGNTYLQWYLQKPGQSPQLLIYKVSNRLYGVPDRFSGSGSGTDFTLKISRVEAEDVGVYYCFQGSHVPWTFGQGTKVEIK
2. VRDN-02032 (antibody, V domains shown) VH: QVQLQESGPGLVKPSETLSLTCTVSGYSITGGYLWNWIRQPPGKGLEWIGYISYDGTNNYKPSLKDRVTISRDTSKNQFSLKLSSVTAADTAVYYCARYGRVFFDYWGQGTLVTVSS VL: DIVMTQSPLSLPVTPGEPASISCRSSHSIVHSNGNTYLQWYLQKPGQSPQLLIYKVSNRLYGVPDRFSGSGSGTDFTLKISRVEAEDVGVYYCFQGSHVPWTFGQGTKVEIK

8.4e-05
9.61e-05
